# TESTED_ON: T1, rat beta CGRP (SEQ ID NO: 83) (rat, not fully specified)
# T1 construct: also called rat βCGRP; rat β-CGRP
# T1 peptide: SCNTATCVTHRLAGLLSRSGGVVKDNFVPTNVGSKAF
# PROTOCOL: SPR, 37 C, mutein captured, CGRP analyte
MEASURE_NAME: koff (s⁻¹)
Give a bare numeral; the unit s⁻¹ is implied.

| BINDER | koff [s⁻¹] |
| --- | --- |
| lipocalin mutein SEQ ID NO: 19 (designed binder, biotinylated by NHS chemistry for capture in SPR) QDSTSDLIPAPPLSKVPLQQNFQDNQFHGKWYVVGRAGNDTLREDKDPEKMEATIYELKEDKSYNVTDVGLVQKKCMYVIHTFVPGSQPGEFTLGNIKSYPGVTSALVRVVSTNYNQHAMVFVKLVKQSRELFEITLYGRTKELTSELKENFIRFSKSLGLPENHIVFPVPIDQCIDGSAWSHPQFEK | 1.21e-05 |
| lipocalin mutein SEQ ID NO: 22 (designed binder, biotinylated by NHS chemistry for capture in SPR) QDSTSDLIPAPPLSKVPLQQNFQDNQFHGKWYVVGRAGNDALREDKDPEKMEATIYELKEDKSYNVTDVGLVQKKCMYVIHTFVPGGQPGEFTLGNIKSYPGVTSALVRVVSTNYNQHAMVFVKLVKQNRELFEITLYGRTKELTSELKENFIRFSKSLGLPENHIVFPVPIDQCIDGSAWSHPQFEK | 2.02e-05 |

# koff (binder: lipocalin mutein SEQ ID NO: 11 (designed binder, biotinylated by NHS chemistry for capture in SPR) QDSTSDLIPAPPLSKVPLQQNFQDNQFHGKWYVVGWAGNTLLREDKDPIKMQAIIYELKEDRSYNVTWVYFSEKKCNYHIETFVPGSQPGEFTLGTIKSYPGETPILVRVVSTNYNQHAMVFFKGVNQNREIFEIILYGRTKELTNELKENFIRFSKSLGLPENHIVFPVPIDQCIDGSAWSHPQFEK ) is 7.3e-05

# koff (binder: lipocalin mutein SEQ ID NO: 26 (designed binder, biotinylated by NHS chemistry for capture in SPR) QDSTSDLIPAPPLSKVPLQQNFQDNQFHGKWYVVGWAGNTLLREDKDPIKMQAKIYELKEDRSYNVTWVYFADKKCRYHIETFVPGSQPGEFTLGTIKSHPGETPILVRVVSTNYNQHAMVFFKGVNQNREIFEIILYGRTKELTNELKENFIRFSKSLGLPENHIVFPVPIDQCIDGSAWSHPQFEK ) is 9.98e-06

# koff (binder: lipocalin mutein SEQ ID NO: 10 (designed binder, biotinylated by NHS chemistry for capture in SPR) QDSTSDLIPAPPLSKVPLQQNFQDNQFHGKWYVVGWAGNTLLREDKNPTKMQATIYELKEDKSYNATWVYLSEKKCNYHIETSVPGSQPGEFTLGTTKSYPGETPILVRVVSTNYNQHAMVFFKGVSQNREIFEITLYGRTKELTSELKENFIRFSKSLGLPENHIVFPVPIDQCIDGSAWSHPQFEK ) is 0.000224

# koff (binder: lipocalin mutein SEQ ID NO: 21 (designed binder, biotinylated by NHS chemistry for capture in SPR) QDSTSDLIPAPPLSKVPLQQNFQDNQFHGKWYVVGRAGNDALREDKDPEKMEATIYELKEDKSYNVTDVGFVQKKCMYVIHTFVPGSQPGEFTLGNIKSYPGVTSALIRVVNTNYNQHAMVFVKLVKQNRELFEITLYGRTKELTSELKENFIRFSKSLGLPENHIVFPVPIDQCIDGSAWSHPQFEK ) is 2.36e-05
